- Experimental System: Collagenase
- Experimental Details: Inhibition of collagenase (acetylated 14C collagen hydrolysis; Cawston and Barrett)
- Condition Info: 37°, 16 hours, pH 7.5, read-out: In vitro inhibitory activity IC50, Collagenase
IC50 values for the molecules below.
Please reply with the bare figure in nM and do not write the unit itself.

Solved entries (count: 3):
# Molecule, Experimental System, IC50 (nM)
data = [
    ("CC(C)C[C@H](CC(=O)NO)C(=O)N[C@H](C(=O)Nc1ccccc1)C(C)(C)C", "Collagenase", 30),
    ("CC(C)C[C@H](CC(=O)NO)C(=O)N[C@@H](Cc1ccccc1)C(=O)Nc1ccccc1", "Collagenase", 20),
    ("Cc1nc(NC(=O)[C@@H](NC(=O)[C@H](CC(C)C)[C@H](O)C(=O)NO)C(C)(C)C)sc1C", "Collagenase", 2),
]

Continue with the next molecule.
Memo: CNC(=O)[C@H](Cc1ccccc1)NC(=O)[C@@H](CC(=O)NO)CC(C)C [Comparator 1, reference compound] , reported IC50: 15

###

Let's look at some molecules and their measured pIC50.
- Experimental System: 72 kDa Gelatinase (Homo sapiens, UniProt P08253)
- Construct: endogenous in cells; host or cells: RPMI-7951 cells
- Sequence (P08253 110-660): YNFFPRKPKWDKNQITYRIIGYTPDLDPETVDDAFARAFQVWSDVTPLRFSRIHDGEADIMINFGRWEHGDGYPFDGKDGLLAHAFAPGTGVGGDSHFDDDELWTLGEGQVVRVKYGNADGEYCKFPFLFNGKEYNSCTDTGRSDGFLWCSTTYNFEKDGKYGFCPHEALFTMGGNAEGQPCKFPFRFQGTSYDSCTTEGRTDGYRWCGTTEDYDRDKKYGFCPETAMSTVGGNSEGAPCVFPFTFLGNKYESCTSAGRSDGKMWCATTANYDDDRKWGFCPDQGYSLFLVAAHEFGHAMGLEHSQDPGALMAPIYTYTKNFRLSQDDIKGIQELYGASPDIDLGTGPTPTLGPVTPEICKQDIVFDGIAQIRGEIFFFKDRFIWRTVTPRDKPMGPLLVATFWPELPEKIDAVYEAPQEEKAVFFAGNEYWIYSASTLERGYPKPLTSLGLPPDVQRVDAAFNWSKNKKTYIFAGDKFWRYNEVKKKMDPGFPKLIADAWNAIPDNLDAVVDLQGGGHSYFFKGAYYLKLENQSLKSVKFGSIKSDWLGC
- Experimental Details: Inhibition of 72 kDa gelatinase (14C-radiolabelled gelatin; Sellers et al)
- Assay type: biochemical
- Condition Info: enzyme from RPMI-7951 cells, 14C gelatin, 37° C., 16 hours; read-out: In vitro inhibitory activity IC50, 72 kDa Gelatinase
The value called pIC50 is obtained by taking minus log10 of the concentration in mol/L.

# Molecule, pIC50
data = [
    ("Cc1nc(NC(=O)[C@@H](NC(=O)[C@H](CC(C)C)[C@H](O)C(=O)NO)C(C)(C)C)sc1C [Example 17]", 7.52),
    ("CC(C)C[C@H](CC(=O)NO)C(=O)N[C@H](C(=O)Nc1ccccc1)C(C)(C)C [Example 2]", 7.52),
    ("CNC(=O)[C@H](Cc1ccccc1)NC(=O)[C@H](CC(C)C)[C@H](O)C(=O)NO [Comparator 4, reference compound]", 8.52),
    ("COc1ccc(NC(=O)[C@H](Cc2ccccc2)NC(=O)[C@H](CC(C)C)[C@H](O)C(=O)NO)cc1 [Example 6]", 8.10),
]

Log: 72 kDa Gelatinase (Homo sapiens, UniProt P08253), molecule CC(C)C[C@H](NC(=O)[C@H](CC(C)C)[C@H](O)C(=O)NO)C(=O)Nc1ccc2ccccc2c1 [Example 5] , pIC50 = 8.22
